The entries below pair compounds with IC50 values for Tyrosine-protein kinase JAK2 (Homo sapiens, UniProt O60674), as found in several publications.

Here are 8 compounds together with their reported answers.
{"Compound": "N#CC[C@H](C1CCCC1)n1cc2c(n1)C(=O)c1c[nH]c3nccc-2c13", "IC50": "< 0.01 µM"}
{"Compound": "CS(=O)(=O)N(CC#N)c1ccc(-c2ccnc(Nc3ccc(N4CCOCC4)c(C#N)c3)n2)cc1", "IC50": "< 0.1 µM"}
{"Compound": "CCN1CCN(Cc2cc(NC(=O)N3Cc4ccc(Oc5ccc6nc(NC(=O)C7CC7)sc6n5)cc4C3)cc(C(F)(F)F)c2)CC1", "IC50": "> 10 µM"}
{"Compound": "Cn1ncc2ccc(-c3cc(C(N)=O)c4[nH]c5cc(C(=O)N6CCOCC6)ccc5c4n3)cc21", "IC50": "0.007 µM"}
{"Compound": "CCc1cc(O)c(F)cc1-c1cc2[nH]ncc2c(NCc2ccccc2N(C)S(C)(=O)=O)n1", "IC50": "0.0021 µM"}
{"Compound": "C[C@H](O)C(=O)N1CC[C@H](Nc2ccc(-c3ncnc(Nc4ccc(N5CCN(C6COC6)CC5)cc4)n3)cc2C#N)[C@H](F)C1", "IC50": "0.069 µM"}
{"Compound": "N#Cc1ccc(N2CCC(Nc3nc(Nc4ccn5c(C(F)F)nnc5c4)ncc3Cl)CC2)nc1", "IC50": "0.01 µM"}
{"Compound": "Cn1nnc2cc(Nc3ncc(Cl)c(NC4CCN(c5ccc(C#N)nn5)CC4)n3)ccc21", "IC50": "0.007 µM"}

Look up IC50 for the entries below, preserving their order.
1. CCS(=O)(=O)N1CC(CC#N)(n2cc(-c3nc(Nc4cnn(CCO)c4)nc4ccsc34)cn2)C1
2. N#CCC1(n2cc(-c3ncnc4[nH]ccc34)cn2)CN(C2CCN(C(=O)c3ccc(F)c(O)c3)CC2)C1
3. C[C@H]1CN(C(=O)CO)C[C@@H]1Oc1ccc(-c2ncnc(Nc3ccc(N4CCN(C5COC5)CC4)cc3)n2)cc1C#N
4. CN(c1ncnc2[nH]ccc12)N1CCCC(C(=O)NCC(F)(F)C(F)(F)F)C1 (stereo not drawn)
5. CCS(=O)(=O)N1CC(CC#N)(n2cc(-c3nc(Nc4ccc(-n5cncn5)cc4)nc4ccsc34)cn2)C1
6. CC(C)(O)Cc1nc2ccc(Nc3ncc(Cl)c(NC4CCN(c5ccc(C#N)nn5)CC4)n3)cn2n1

Ans.
1. < 0.05 µM
2. 0.01 to 0.05 µM
3. ≥ 1 µM
4. 0.01 to 0.1 µM
5. < 0.05 µM
6. 0.102 µM

---

The entries below pair molecules with pIC50 values for Tyrosine-protein kinase JAK2 (Homo sapiens), as found in several publications.
pIC50: −log10 of the molar value.

Look up pIC50 for the entries below, preserving their order.
1. Cc1cc(Nc2ncc(C)c(N3CC(C#N)C3)n2)sn1
2. CNC(=O)c1cc2ccc1C(=O)NCCCCCNc1nc(ncc1C)Nc1cc-2cnc1F
3. CN(c1ccccc1Cn1ccc2cnc(Nc3ccc4c(c3)CCC(=O)N4)nc21)S(C)(=O)=O
4. CC(C)(C)n1cc(Nc2ncnc(-c3ccc(O[C@H]4CCN(C(=O)CCO)C[C@H]4F)c(C#N)c3)n2)cn1
5. COc1cc(Nc2ncnc(-c3ccc(O[C@@H]4CCN(C(=O)CO)C4)c(C#N)c3)n2)ccc1N1CCN(C2COC2)CC1
6. O=C(NCC1CC1(F)F)c1noc2c1CN(c1ncnc3[nH]ccc13)CC2 (centres unmarked)
7. CCN1CCN(Cc2cc(NC(=O)Nc3ccc(C)c(-c4ccc5nc(NC(=O)C6CC6)sc5n4)c3)cc(C(F)(F)F)c2)CC1

Ans.
1: > 7.30; 2: 5.00 to 6.00; 3: > 7.70; 4: 6.65; 5: 6.89; 6: 6.30 to 7.00; 7: < 5.00

Look up pIC50 for the entries below, preserving their order.
1. Cc1ccc(OCC(O)CNc2ccnc(O)c2-c2nc3cc4c(cc3[nH]2)C(=O)N(CCCn2cccn2)C4=O)c(C)c1 (centres unmarked)
2. COCC(C)NCC(=O)Nc1ccc(Nc2nccc(-c3cnn(C(CC#N)C4CCCC4)c3)n2)cc1 (mixture of isomers)
3. COC(=O)[C@H]1C[C@H](NC(=O)c2nn(C)c3c2CN(c2ncnc4[nH]ccc24)CC3)C1
4. N#CCC(C1CC1)n1cc(-c2ccnc(Nc3ccc(C(=O)N4CCC(O)CC4)cc3)n2)cn1 (racemic)
5. CC(=O)N1CC(CCF)(n2cc(-c3nc(-c4cnn(C)c4)cc4nccn34)cn2)C1
6. CCS(=O)(=O)N1CC(CC#N)(n2cc(-c3nc(NC(=O)C4CC4)nc4ccsc34)cn2)C1
7. COc1ccc2cc1COC/C=C/COc1cccc(c1)-c1ccnc(n1)N2
8. CN(C)Cc1cc(C(=O)N2CCC(N3CC(CC#N)(n4cc(-c5ncnc6[nH]ccc56)cn4)C3)CC2)c(F)c(C(F)(F)F)n1

Ans.
1. < 4.82
2. > 7.00
3. < 5.70
4. > 7.00
5. < 6.00
6. > 7.30
7. ≥ 6.00
8. 7.30 to 8.00
